Every entry's value here was drawn from patent US20050112204A1.

Experiment: aqueous solubility of voriconazole (previously measured data)
Assay type: physicochemical
Conditions: water, aqueous buffer; pH 7; 22° C.
Measurement type: solubility (µg/mL)
Answers are plain numbers, in µg/mL.

State its solubility for this compound: C[C@@H](c1ncncc1F)[C@](O)(Cn1cncn1)c1ccc(F)cc1F [voriconazole]
610

====

Experiment: visual solubility of voriconazole in water and aqueous poloxamer F127 solutions (Example 2)
Assay type: physicochemical
Settings: aqueous poloxamer F127 solution, aqueous with cosolvent or surfactant or cyclodextrin, thermodynamic from solid, in 10% F127 solution; read-out: soluble up to
Measurement type: solubility

State its solubility for this compound: C[C@@H](c1ncncc1F)[C@](O)(Cn1cncn1)c1ccc(F)cc1F [voriconazole]
≤ 2000 µg/mL

====

Assay: visual solubility of voriconazole in water and aqueous poloxamer F127 solutions (Example 2)
Assay type: physicochemical
Conditions: aqueous poloxamer F127 solution, aqueous with cosolvent or surfactant or cyclodextrin, thermodynamic from solid, in 15% F127 solution; read-out: soluble up to
Measurement type: solubility

State its solubility for this molecule: C[C@@H](c1ncncc1F)[C@](O)(Cn1cncn1)c1ccc(F)cc1F [voriconazole]
≤ 3000 µg/mL
